Molecular target: human Claudin18.2 (CLDN18.2) (human, UniProt P56856 1-261)
Experiment: cell-based or functional assay
Label key: yes (1) means IC50 of indirect ADC cytotoxicity under 0.9 nM; no (0) means IC50 of indirect ADC cytotoxicity of 0.9 nM or more.

[[record]]
binder = "chAb30 (antibody, V domains shown) VH: QVQLKESGPGLVAPSQSLSITCTVSGFSLTKFGVNWVRQPPGKGLEWLGAIWGDGSTNYHSALISRLSINKDNSKSQVFLKLSSLQNVDTATYYCAKSGYGNAMDYWGHGTSVTVSS VL: DIVMTQSPSSLTVTTGEKVTLNCKSSQSLLNSGNLKNYLTWYQQRPGQPPKLLIYWASTRESGVPYRFTGSGSGTDFTLTISNVQAEDLAIYYCQNDYFFPFTFGSGTKLEIK"
class_label = "no (0)"

[[record]]
binder = "chAb31 (antibody, V domains shown) VH: QIQLAQSGPELKKPGETVKISCKASGYSFTNYGMNWVKQAPGKGLKWMGWINTYSGETKYADDFKGRFDFSLETSARTAYLQIKNLKIEDTATYFCARRDAMDYWGQGTSVTVSS VL: DIVMTQAAPSVPVTPGESVSISCRSSKSLLNSNGNTYLYWFLQRPGQSPQLLIYRMSNLASGVPDRFSGSGSGTAFTLRISRVEAEDVGVYYCMQHLEFPFTFGSGTKLEIK"
class_label = "no (0)"

[[record]]
binder = "chAb24 (antibody, V domains shown) VH: EVKLVESGGGLVKPGGSLKLSCAGSGFTFSSYTMSWVRQTPEKRLEWVATITIGVNIYYLDSVKGRFTISRDNAKNTLYLQMNSLRSEDTALYYCTRLGQTQRNAMDYWGQGTSVTVSS VL: DIVMTQSPTSLSVSAGEKVTMTCKSSQSLFNSGNQKNYLAWYQEKPGQPPKLLIYGASTRESGVPDRFTGSGSGTDFTLTISSVQAEDLAVYYCQNVHFYPFTFGAGTKLEL"
class_label = "yes (1)"

[[record]]
binder = "chAb06 (antibody, V domains shown) VH: EVQLVASGGGLVKPGGSLKLSCAASGITFRSYAMSWVRQTPEKRLEWVATITDGGSYIFYPDNVKGRFTISGDHAKNNLYLQMSHLKSEDTALYFCVRLYYGNSFAYWGQGTLVTVSA VL: DIVMTQSPSSLTVTAGEKVTLNCKSSQSLFNSGNQKNYLTWYQQKPGQPPKLLIYWASTRESGVPDRFTGSGSGTDFTLTFSSVQAEDLAVYYCQNAYIYPFTFGSGTKLEIK"
class_label = "yes (1)"

[[record]]
binder = "chAb10 (antibody, V domains shown) VH: EVMLVESGGGLVKPGGSLKLSCAASGFTFSSYTMSWVRQTPEKRLEWVATISVIGGNTYYVDSVKGRFTISRDKAKNTLYLQMSSLRSEDTALYYCARLGQTQRNAMDYWGQGTSVTVSS VL: DIVMTQSPSSLSVSAGEKVTMSCKSSQSLLNSGNQKNYLAWYQQKPGQPPKLLIYGASTRESGVPDRFTGSGSGTDFTLTISSVQAEDLAVYYCQNDYSYPLTFGAGTKLELK"
class_label = "yes (1)"


[ask] is_below(IC50 of indirect ADC cytotoxicity, 0.9 nM) for chAb11 (antibody, V domains shown) VH: EVMLVESGGDLVKPGGSLKLSCAASGFTFSRYTMSWVRQTPEKRLEWVATVSVGSGNTYYLDSVKGRFTISRDNAKNTLFLQMNSLRSEDTALYYCTRLGQTQRNAVDYWGQGTSVTVSS VL: DIVMTQSPSFLSVSAGEKVTMSCKSSQSLFNGGNQKNYLAWYQQKPGQPPKLLIYGASTRDSGVPDRFTGSGSGTDFTLTISNVQAEDLAIYFCQNDHSFPLTFGAGTKLELK ?
[reply] yes (1)
